Values were extracted from patent US20040142979A1.

target_of_assay: Human recombinant MMP-1 (Homo sapiens)
experiment_description: In vitro MMP inhibition analysis (fluorogenic peptide substrate), MMP-1
condition_parameters: human recombinant enzyme; 4 μM substrate (A); apparent Ki without substrate correction
pKi: −log10 of the molar value.
endpoint_name: pKi

1. CCc1ccc(-c2nc3ccc(S(=O)(=O)C4(C(=O)NO)CCOCC4)cc3s2)cc1
< 5.00
2. O=C(Cc1ccc(-c2ccc(S(=O)(=O)C3(C(=O)NO)CCOCC3)cn2)cc1)N1CCCCC1
< 5.00
3. CCCCN(C)C(=O)Cc1ccc(-c2ccc(S(=O)(=O)C3(C(=O)NO)CCOCC3)cn2)cc1
< 5.00
4. O=C(NO)C1(S(=O)(=O)c2ccc3nc(-c4cccc(C(F)(F)F)c4)sc3c2)CCOCC1
< 5.00
5. O=C(NO)C1(S(=O)(=O)c2ccc3nc(-c4ccc5c(c4)OCO5)sc3c2)CCOCC1
< 5.90

So, `O=C(NO)C1(S(=O)(=O)c2ccc3nc(-c4ccc(Cl)s4)sc3c2)CCOCC1` ? Its pKi was < 5.90

So, `CCCCCc1ccc(-c2ccc(S(=O)(=O)C3(C(=O)NO)CCOCC3)cn2)cc1` ? Its pKi was < 5.00

====

target_of_assay: Human recombinant MMP-1 (Homo sapiens, UniProt P03956)
Sequence (P03956 100-469): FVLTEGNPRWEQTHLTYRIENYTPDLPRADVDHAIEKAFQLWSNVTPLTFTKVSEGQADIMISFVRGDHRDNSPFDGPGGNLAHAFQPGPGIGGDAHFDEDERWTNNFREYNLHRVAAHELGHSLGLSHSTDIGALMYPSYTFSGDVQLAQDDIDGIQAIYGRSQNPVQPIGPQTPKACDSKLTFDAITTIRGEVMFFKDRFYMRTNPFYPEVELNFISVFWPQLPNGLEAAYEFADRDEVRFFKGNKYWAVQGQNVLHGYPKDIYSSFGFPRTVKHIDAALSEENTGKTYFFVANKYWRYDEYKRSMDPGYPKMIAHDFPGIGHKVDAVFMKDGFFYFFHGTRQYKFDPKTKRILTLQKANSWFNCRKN
experiment_description: In vitro MMP inhibition analysis (fluorogenic peptide substrate), MMP-1
condition_parameters: human recombinant enzyme; 4 μM substrate (A); apparent Ki without substrate correction
endpoint_name: Ki (µM)

Example entries and their recorded answers appear below.
1. COCCN1CCC(C(=O)NO)(S(=O)(=O)c2ccc3nc(-c4ccc(OC(F)(F)F)cc4)sc3c2)CC1
9.16
2. O=C(NO)C1(S(=O)(=O)c2ccc(-c3ccc(OC(F)(F)C(F)F)cc3)nc2)CCOCC1 [Example 47]
1.49
3. O=C(NO)C1(S(=O)(=O)c2ccc(-c3ccc(OC(F)(F)F)cc3)nc2)CCOCC1
4.48
4. O=C(NO)C1(S(=O)(=O)c2ccc3nc(-c4ccsc4)sc3c2)CCOCC1
2.02

a = O=C(NO)C1(S(=O)(=O)c2ccc(-c3ccc(OC(F)(F)C(F)F)cc3)nc2)CCOCC1 [Example 48]
b = O=C(NO)C1(S(=O)(=O)c2ccc3nc(-c4ccc(F)c(F)c4)sc3c2)CCOCC1
[Q] Hey, between a and b which has a smaller measured Ki? The response must carry the label of the picked entry.
[A] a

====

target_of_assay: Human recombinant MMP-13 (Homo sapiens, UniProt P45452)
experiment_description: In vitro MMP inhibition analysis (fluorogenic peptide substrate), MMP-13
condition_parameters: human recombinant enzyme; 4 μM substrate (A); apparent Ki without substrate correction
pKi: −log10 of the molar value.
endpoint_name: pKi

Example entries and their recorded answers appear below.
1) CN(C(=O)Cc1ccc(-c2ccc(S(=O)(=O)C3(C(=O)NO)CCOCC3)cn2)cc1)c1ccc(OC(F)(F)F)cc1
6.85
2) O=C(NO)C1(S(=O)(=O)c2ccc3nc(-c4ccc(OC(F)(F)F)cc4)sc3c2)CCOCC1
9.56
3) O=C(NO)C1(S(=O)(=O)c2ccc(-c3ccc(OC(F)(F)C(F)F)cc3)s2)CCOCC1
9.87

a = O=C(NO)C1(S(=O)(=O)c2ccc(-c3ccc(OCC(F)(F)F)cc3)nc2)CCOCC1
b = O=C(NO)C1(S(=O)(=O)c2ccc3nc(-c4ccsc4)sc3c2)CCOCC1
c = O=C(NO)C1(S(=O)(=O)c2ccc(-c3ccc(CCC(F)(F)C(F)(F)F)cc3)nc2)CCOCC1
d = CC(C)CN(C)C(=O)c1ccc(-c2ccc(S(=O)(=O)C3(C(=O)NO)CCOCC3)cn2)cc1
e = O=C(NO)C1(S(=O)(=O)c2ccc3c(c2)sc2nc(-c4ccccc4)cn23)CCOCC1
[Q] Form: Sort by [pKi] Order [ ascending ] // format: requested-order list of labels
[A] e, d, b, c, a
